Values compiled from the supplement of paper PMC6555819.

System: THRa homodimer (NR concentration 90 nM)
Experiment: PBM binding z-score (relative to random genomic background probes); higher = stronger binding; sequences stand for … in GC…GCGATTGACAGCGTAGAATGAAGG
Exercise: state measured PBM binding z-score for each of the sequences provided.
Answers are plain numbers.

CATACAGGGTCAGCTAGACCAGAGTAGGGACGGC    0.733
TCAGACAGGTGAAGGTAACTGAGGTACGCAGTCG    0.494
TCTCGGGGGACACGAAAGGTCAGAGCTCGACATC    2.07
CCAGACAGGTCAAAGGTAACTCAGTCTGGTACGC    0.0861
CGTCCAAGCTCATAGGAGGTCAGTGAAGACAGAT    0.642
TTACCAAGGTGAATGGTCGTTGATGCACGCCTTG    0.775
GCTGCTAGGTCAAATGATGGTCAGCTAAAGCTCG    0.255
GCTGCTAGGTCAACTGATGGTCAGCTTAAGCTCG    0.988
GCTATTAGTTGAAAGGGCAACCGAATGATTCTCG    -0.209
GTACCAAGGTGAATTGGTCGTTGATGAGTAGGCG    0.25

// batch mode: one PBM binding z-score value per listed entry
1. GCTTGAAGATCAAGGTTAAGAAAGACTAAGCTAA
2. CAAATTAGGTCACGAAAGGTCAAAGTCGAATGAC

[A]
1. -0.36
2. 3.01

###

Exercise: state measured PBM binding z-score for each of the sequences provided.
System: PPARg homodimer (NR concentration 180 nM)
Assay: PBM binding z-score (relative to random genomic background probes); higher = stronger binding; sequences stand for … in GC…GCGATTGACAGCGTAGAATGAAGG
One number for each entry.

Past entries and their recorded results:
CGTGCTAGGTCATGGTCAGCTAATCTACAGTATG    1.36
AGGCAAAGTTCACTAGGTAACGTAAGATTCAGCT    3.61

// batch mode: one PBM binding z-score value per listed entry
1. TGAATGGGGTTATAAGATCAGGGAACGTTGCAAA
2. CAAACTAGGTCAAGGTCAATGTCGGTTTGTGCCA
3. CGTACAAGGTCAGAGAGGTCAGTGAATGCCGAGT

[A]
1: 2.39; 2: 4.97; 3: 3.94

###

Exercise: state measured PBM binding z-score for each of the sequences provided.
System: PPARg:RXRa 270nM:90nM, anti-RXR (NR concentration 270 nM, RXRa partner concentration 90 nM)
Experiment: PBM binding z-score (relative to random genomic background probes); higher = stronger binding; sequences stand for … in GC…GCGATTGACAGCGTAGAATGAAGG
Answers are plain numbers.

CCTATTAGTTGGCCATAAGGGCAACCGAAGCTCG    0.665
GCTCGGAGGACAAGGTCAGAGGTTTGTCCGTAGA    2.59
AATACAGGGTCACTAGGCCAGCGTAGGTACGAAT    6.28
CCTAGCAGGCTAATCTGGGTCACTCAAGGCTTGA    2.31
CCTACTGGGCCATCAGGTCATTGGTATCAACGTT    3.68

// batch mode: one PBM binding z-score value per listed entry
1. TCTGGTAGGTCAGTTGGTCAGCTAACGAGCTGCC
2. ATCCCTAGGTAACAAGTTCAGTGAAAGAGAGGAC
3. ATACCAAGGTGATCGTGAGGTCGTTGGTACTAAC
4. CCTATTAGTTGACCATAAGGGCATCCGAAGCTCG
5. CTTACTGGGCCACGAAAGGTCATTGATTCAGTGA

[A]
[2.93, 0.236, 0.597, 0.533, 6.33]

// batch mode: one PBM binding z-score value per listed entry
1. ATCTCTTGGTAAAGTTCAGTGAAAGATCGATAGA
2. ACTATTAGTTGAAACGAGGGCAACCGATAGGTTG
3. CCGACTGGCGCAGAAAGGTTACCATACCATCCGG
4. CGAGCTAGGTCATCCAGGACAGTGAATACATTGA

[A]
3.02
0.84
1.16
2.25

// batch mode: one PBM binding z-score value per listed entry
1. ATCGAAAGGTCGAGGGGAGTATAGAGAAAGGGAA
2. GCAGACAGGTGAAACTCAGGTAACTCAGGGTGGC
3. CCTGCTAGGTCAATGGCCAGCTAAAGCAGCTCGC
4. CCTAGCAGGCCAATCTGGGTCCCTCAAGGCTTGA
5. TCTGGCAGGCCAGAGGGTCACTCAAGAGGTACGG
6. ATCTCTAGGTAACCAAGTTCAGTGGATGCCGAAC

[A]
1: 3.17; 2: 0.196; 3: 2.65; 4: -0.653; 5: 1.48; 6: 0.741

###

Tested on: RXRa DBDmut IVT, anti-RXR (DBD mutation: RXRa K156A/R161A, NR concentration 90 nM)
Test: PBM binding z-score (relative to random genomic background probes); higher = stronger binding; sequences stand for … in GC…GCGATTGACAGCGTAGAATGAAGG
Assign yes whenever PBM binding z-score does not fall below 0.7; assign no whenever it does.

Example entries and their recorded answers appear below.
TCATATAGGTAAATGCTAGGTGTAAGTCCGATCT    yes
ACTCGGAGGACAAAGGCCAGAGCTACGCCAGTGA    no
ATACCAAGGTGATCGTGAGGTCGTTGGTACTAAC    no

[Q] Hi team, for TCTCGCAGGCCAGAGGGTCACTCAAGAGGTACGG , is the recorded PBM binding z-score at or above 0.7?
[A] no

[Q] Hi team, for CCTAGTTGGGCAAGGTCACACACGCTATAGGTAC , is the recorded PBM binding z-score at or above 0.7?
[A] yes

[Q] Hi team, for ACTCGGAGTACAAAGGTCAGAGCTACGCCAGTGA , is the recorded PBM binding z-score at or above 0.7?
[A] yes

[Q] Hi team, for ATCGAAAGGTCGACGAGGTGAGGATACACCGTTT , is the recorded PBM binding z-score at or above 0.7?
[A] yes

[Q] Hi team, for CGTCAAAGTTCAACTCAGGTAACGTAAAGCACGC , is the recorded PBM binding z-score at or above 0.7?
[A] yes

[Q] Hi team, for GCGACTGGGGCATCAGCAGGTTACCTTAACTTAA , is the recorded PBM binding z-score at or above 0.7?
[A] no

[Q] Hi team, for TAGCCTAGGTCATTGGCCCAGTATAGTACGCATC , is the recorded PBM binding z-score at or above 0.7?
[A] yes

[Q] Hi team, for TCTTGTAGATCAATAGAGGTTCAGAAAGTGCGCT , is the recorded PBM binding z-score at or above 0.7?
[A] yes

[Q] Hi team, for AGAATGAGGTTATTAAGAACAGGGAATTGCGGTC , is the recorded PBM binding z-score at or above 0.7?
[A] yes

###

System: RARg:RXRa (NR concentration 270 nM, RXRa partner concentration 90 nM)
Test: PBM binding z-score (relative to random genomic background probes); higher = stronger binding; sequences stand for … in GC…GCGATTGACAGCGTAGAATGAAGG
valueType: PBM binding z-score

// batch mode: one PBM binding z-score value per listed entry
1. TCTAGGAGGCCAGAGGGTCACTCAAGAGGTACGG
2. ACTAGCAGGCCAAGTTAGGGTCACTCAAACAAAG
3. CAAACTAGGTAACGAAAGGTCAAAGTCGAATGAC
4. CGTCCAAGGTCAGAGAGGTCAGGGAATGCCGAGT

[A]
3.09
4.02
5.68
6.59

// batch mode: one PBM binding z-score value per listed entry
1. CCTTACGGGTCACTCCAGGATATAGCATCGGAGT
2. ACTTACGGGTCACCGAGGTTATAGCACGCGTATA

[A]
1: 4.02; 2: 6.34

###

Test system: THRa:RXRa (NR concentration 90 nM, RXRa partner concentration 90 nM)
Assay: PBM binding z-score (relative to random genomic background probes); higher = stronger binding; sequences stand for … in GC…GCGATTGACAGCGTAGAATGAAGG
Assign Y whenever PBM binding z-score does not fall below 1; assign N whenever it does.

Example entries and their recorded answers appear below.
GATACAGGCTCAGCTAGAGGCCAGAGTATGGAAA    N
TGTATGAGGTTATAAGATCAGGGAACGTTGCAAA    Y

Field: next sequence
[Q] Hi team, for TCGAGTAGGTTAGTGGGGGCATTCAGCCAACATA , is the recorded PBM binding z-score at or above 1?
[A] Y

###

Tested on: RARb:RXRa (NR concentration 270 nM, RXRa partner concentration 90 nM)
Test: PBM binding z-score (relative to random genomic background probes); higher = stronger binding; sequences stand for … in GC…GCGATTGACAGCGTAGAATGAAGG
Exercise: state measured PBM binding z-score for each of the sequences provided.
Numbers only.

Past entries and their recorded results:
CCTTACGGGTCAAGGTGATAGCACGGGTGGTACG    4.11
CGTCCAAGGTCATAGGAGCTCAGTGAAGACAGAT    5.1
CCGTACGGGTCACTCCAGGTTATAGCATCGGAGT    3.64

// batch mode: one PBM binding z-score value per listed entry
1. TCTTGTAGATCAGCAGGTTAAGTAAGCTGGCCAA
2. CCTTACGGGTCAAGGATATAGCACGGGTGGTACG
3. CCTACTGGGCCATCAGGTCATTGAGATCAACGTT
4. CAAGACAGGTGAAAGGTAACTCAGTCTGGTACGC

[A]
[0.298, 3.88, 2.22, 1.57]

// batch mode: one PBM binding z-score value per listed entry
1. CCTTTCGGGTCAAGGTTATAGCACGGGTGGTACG
2. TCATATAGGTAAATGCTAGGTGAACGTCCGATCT
3. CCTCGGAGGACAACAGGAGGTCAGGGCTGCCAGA
4. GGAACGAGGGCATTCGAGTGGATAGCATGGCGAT
5. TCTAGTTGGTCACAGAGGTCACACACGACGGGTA
6. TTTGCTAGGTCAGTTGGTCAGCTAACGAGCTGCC
7. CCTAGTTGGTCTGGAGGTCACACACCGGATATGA

[A]
[4.3, 0.536, 3.01, 1.74, 4.28, 3.31, 3.59]

// batch mode: one PBM binding z-score value per listed entry
1. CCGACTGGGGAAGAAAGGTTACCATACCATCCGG
2. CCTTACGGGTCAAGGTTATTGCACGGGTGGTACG
3. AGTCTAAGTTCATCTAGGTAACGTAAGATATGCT
4. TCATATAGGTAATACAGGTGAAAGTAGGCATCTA
5. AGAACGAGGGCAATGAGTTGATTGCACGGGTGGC

[A]
1: 1.23; 2: 4.12; 3: 3.55; 4: 0.613; 5: 1.89

// batch mode: one PBM binding z-score value per listed entry
1. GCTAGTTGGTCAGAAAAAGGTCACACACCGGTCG
2. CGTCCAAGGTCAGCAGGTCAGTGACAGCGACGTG
3. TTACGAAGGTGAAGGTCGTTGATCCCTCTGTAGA
4. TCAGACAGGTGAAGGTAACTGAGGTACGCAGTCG

[A]
[4.17, 5.27, 2.23, 1.04]
